conditions: Liquid; Ebulliometric method (Recirculating still)
Numbers after ± are expanded uncertainties.
MEASUREMENT_NAME: Normal boiling temperature
Write the numeric value and follow it with the unit.

// known answers, use as guide
So for ClC(Cl)Cl , the logged Normal boiling temperature turned out to be 61.0 ± 0.2 °C

# Normal boiling temperature of c1ccccc1 = 80 ± 0.2 °C

Form field Normal boiling temperature, entry FC(F)(F)c1ccccc1 : 102.6 ± 0.2 °C

Now look at this one.
Entry under test: CCO . Its Normal boiling temperature was 78.6 ± 0.2 °C
